target system: Muscarinic acetylcholine receptor M4 (Homo sapiens) (UniProt P08173)
Sequence (P08173 whole entry, looked up): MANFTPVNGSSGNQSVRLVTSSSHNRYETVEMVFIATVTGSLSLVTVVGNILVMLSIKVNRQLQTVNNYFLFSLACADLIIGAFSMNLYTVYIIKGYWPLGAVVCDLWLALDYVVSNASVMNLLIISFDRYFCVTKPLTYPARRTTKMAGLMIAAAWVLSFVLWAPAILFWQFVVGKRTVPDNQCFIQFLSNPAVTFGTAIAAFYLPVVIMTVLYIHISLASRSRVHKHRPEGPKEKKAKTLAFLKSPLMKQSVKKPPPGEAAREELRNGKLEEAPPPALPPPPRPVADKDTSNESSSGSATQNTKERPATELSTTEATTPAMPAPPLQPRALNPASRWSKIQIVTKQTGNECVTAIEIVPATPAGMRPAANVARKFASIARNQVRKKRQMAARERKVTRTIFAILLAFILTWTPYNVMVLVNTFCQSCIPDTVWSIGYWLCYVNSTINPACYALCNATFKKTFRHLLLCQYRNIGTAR
assay: compounds altering M4/GIRK thallium flux, either direction, primary screen, M4 allosteric agonist project, cell-based, HEK293 M4/GIRK, BTC-AM (AID 625);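 note: thallium influx through GIRK channels coupled to M4 in HEK293 cells with BTC-AM dye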
test parameters: at 10 µM, actives lie on both sides
Active and inactive are the calls of the source.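 Rule for the calls: active = fluorescence slope after compound addition differing from the mean of all tested samples at 99.7% confidence, mostly higher but some lower; inactive = the rest.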
attribute measured: fluorescence slope

Below: 3 molecules and their reported fluorescence slope.
{"molecule": "CCCC1Cc2c(sc3ncnc(N)c23)CO1 (stereo unspecified)", "fluorescence slope": "0.00429 (inactive)"}
{"molecule": "CCOc1ccccc1N1CCN(c2nc3ccccc3nc2C(C#N)C(=O)OC)CC1 (stereo unspecified)", "fluorescence slope": "0.00534 (inactive)"}
{"molecule": "c1ccc(CN2CCN(c3ncnc4c3[nH]c3ccccc34)CC2)cc1", "fluorescence slope": "0.00594 (inactive)"}

State the recorded fluorescence slope for this entry: `O=C(NC1CCCCC1)Nn1c(-c2ccccc2)nc2ccccc2c1=O`
0.00473 (inactive)

State the recorded fluorescence slope for this entry: `Cn1c(=O)c2c(nc(Br)n2CCSc2ncccn2)n(C)c1=O`
0.00613 (inactive)

State the recorded fluorescence slope for this entry: `c1ccc2c(c1)[nH]c1c(N3CCC4(CC3)OCCO4)ncnc12`
0.00574 (inactive)

State the recorded fluorescence slope for this entry: Cc1cc(C)n(CC2CC(=O)N(c3ccc(Cl)c(Cl)c3)C2=O)n1 (stereo unspecified)
0.00497 (inactive)

State the recorded fluorescence slope for this entry: `CC(C)(C)c1nnc2sc(SCC(=O)c3ccccc3)nn2c1=O`
0.00537 (inactive)

State the recorded fluorescence slope for this entry: N#CC1=C(N)OC2=C(C(=O)CCC2)C1CCc1ccccc1 (stereo unspecified)
0.00745 (inactive)

* * *

assay: inhibitors of Chlamydomonas gravitaxis, primary screen, whole organism, Chlamydomonas reinhardtii, WT vs cilia-less mutant, absorbance, 96-well (AID 463189);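 note: 0% = wild type cc124 cells in DMSO and 100% = ciliumless bld1 mutant cells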
test parameters: OD600 absorbance, 2 days, at 10 µM, stronger effect = higher value
attribute measured: inhibition (%)
The figure you give is taken to be in %; do not add the unit.

Below: 5 compounds and their reported inhibition.
{"compound": "CC(C)(C)C1CCC2(CC1)C(C#N)=C(SCC(=O)Nc1ccccc1)NC(=O)C2C#N (stereo unspecified)", "inhibition, %": 10.8}
{"compound": "O/N=C/c1ccc(OCC(O)COc2ccc(/C=N/O)cc2)cc1", "inhibition, %": 13.7}
{"compound": "Cn1c(=O)oc2cc(C(=O)c3ccccc3)ccc21", "inhibition, %": -6.29}
{"compound": "CC(=Nc1ccc(C)c(C)c1)C1=C(O)CCC1=O", "inhibition, %": 2.51}
{"compound": "CNC(=O)Nc1cccc(NC(=O)NC)n1", "inhibition, %": -3.2}

State the recorded inhibition for this entry: Oc1ccc2c(c1)C1CCCC1(N1CCOCC1)O2 (stereo unspecified)
-3.55

* * *

target system: Voltage-gated potassium channel subunit beta-2 (Rattus norvegicus) (UniProt P62483)
Sequence (P62483 whole entry, looked up): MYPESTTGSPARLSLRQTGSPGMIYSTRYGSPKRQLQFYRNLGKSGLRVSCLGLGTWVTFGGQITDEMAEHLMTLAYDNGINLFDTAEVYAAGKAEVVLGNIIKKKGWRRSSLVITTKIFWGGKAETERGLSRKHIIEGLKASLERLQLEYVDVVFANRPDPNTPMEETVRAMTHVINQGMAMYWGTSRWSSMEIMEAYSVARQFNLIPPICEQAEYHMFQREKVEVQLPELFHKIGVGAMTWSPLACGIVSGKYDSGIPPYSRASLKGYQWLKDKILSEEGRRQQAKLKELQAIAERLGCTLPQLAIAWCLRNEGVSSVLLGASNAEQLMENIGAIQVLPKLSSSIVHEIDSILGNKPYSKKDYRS
assay: KvBeta enzyme negative modulators, primary screen, biochemical, NADPH fluorescence (AID 622);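 note: slope of raw intensity against log time taken from 70 to 1610 s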
test parameters: recombinant KvBeta, 4-cyanobenzaldehyde reduction, at 10 µM, stronger effect = higher value
attribute measured: fluorescence slope
Quick one: just the number, no unit, thanks!

Below: 5 compounds and their reported fluorescence slope.
{"compound": "COc1ccc2c(c1)[nH]c1c(=O)n(CCN(C)C)cnc12", "target system": "Voltage-gated potassium channel subunit beta-2 (Rattus norvegicus) (UniProt P62483)", "fluorescence slope": -0.449}
{"compound": "COc1nc(N(C)S(=O)(=O)c2ccc(C)cc2)nc(C)c1Cl", "target system": "Voltage-gated potassium channel subunit beta-2 (Rattus norvegicus) (UniProt P62483)", "fluorescence slope": -0.362}
{"compound": "CCOC(=O)CC1=C(C(=O)OCC)C(c2cc(OC)c(OC)cc2OC)C(C#N)=C(N)O1 (stereo unspecified)", "target system": "Voltage-gated potassium channel subunit beta-2 (Rattus norvegicus) (UniProt P62483)", "fluorescence slope": -0.345}
{"compound": "Nc1nnc(Cc2ccc(Cl)c(Cl)c2)s1", "target system": "Voltage-gated potassium channel subunit beta-2 (Rattus norvegicus) (UniProt P62483)", "fluorescence slope": -0.369}
{"compound": "C=CCNc1sc(C(=O)C2CC2)c(N)c1C#N", "target system": "Voltage-gated potassium channel subunit beta-2 (Rattus norvegicus) (UniProt P62483)", "fluorescence slope": -0.366}

Note: attention shifts to another entry.
State the recorded fluorescence slope for this entry: CN1C2C=C3C(C#N)=C(N)C(C#N)(C#N)[C@@H](c4cccs4)C3C1CC2 (stereo partly specified)
-0.419

* * *

target system: Alpha-2C adrenergic receptor (Homo sapiens)
assay: modulators of alpha2C/GIRK thallium flux, primary screen, cell-based, HEK293 alpha2C/GIRK1/2 (AID 624);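 note: slope of fluorescence ratio to pre-addition baseline per second over 15 to 24 s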
test parameters: thallium flux BTC fluorescence, at 10 µM, actives lie on both sides
Label 1.0 for high-side slope (at or above 0.006) and 0.0 for low-side slope (below it).

{"molecule": "CCN(CC)c1ccc2cc(-c3nnc(-c4ccncc4)o3)c(=O)oc2c1", "qualitative label": 0.0}
{"molecule": "CCSc1nc(O)c(C2OC(=O)c3c2ccc(OC)c3OC)c(=O)n1-c1ccccc1 (stereo unspecified)", "qualitative label": 1.0}

Identify whether the reported slope of the following molecule is 0.006 or greater: `NC(=O)N1c2ccccc2C=Cc2ccccc21`
0.0

Identify whether the reported slope of the following molecule is 0.006 or greater: `CC(C)N=c1cc2n(-c3ccc(Cl)cc3)c3ccccc3nc-2cc1Nc1ccc(Cl)cc1`
0.0

Identify whether the reported slope of the following molecule is 0.006 or greater: CC1(C)CC(=O)C(C=NCC(O)c2ccccc2)=C(O)C1 (stereo unspecified)
0.0

Identify whether the reported slope of the following molecule is 0.006 or greater: CC(COc1ccccc1)NC(C)C(O)c1ccc(O)cc1 (stereo unspecified)
1.0

Identify whether the reported slope of the following molecule is 0.006 or greater: `N/C(CCN1CCCCC1)=N/O`
0.0

Identify whether the reported slope of the following molecule is 0.006 or greater: `COC(=O)c1[nH]c2cc(OC)ccc2c1NC(=O)CN1CCC(C(N)=O)CC1`
1.0

Identify whether the reported slope of the following molecule is 0.006 or greater: COc1cc(C2C(C#N)=C(N)Oc3cc(C)n(CCc4ccccc4)c(=O)c32)cc2c1OCO2 (stereo unspecified)
0.0

Identify whether the reported slope of the following molecule is 0.006 or greater: `CCc1nnc(NC(=O)CSc2nc(C)c3c(c2C#N)CCCC3)s1`
1.0

Identify whether the reported slope of the following molecule is 0.006 or greater: CC(C)Cc1ccc(C(C)C(=O)O)cc1 (stereo unspecified)
0.0

* * *

assay: DUSP6 inhibitors restoring Erk phosphorylation by chemical complementation, primary imaging in DUSP6-transfected HeLa (AID 609)
test parameters: HeLa MKP-3 transfected, phospho-Erk imaging KS statistic; measured here: cell density z-score; at 10 µM; cells stimulated with TPA for 15 min
Label satisfied for high-side z-score (at or above -0.4) and not satisfied for low-side z-score (below it).

{"smiles repr": "COc1ccc(-c2nnc3sc(COc4ccccc4)nn23)cc1", "qualitative label": "satisfied"}

Identify whether the reported z-score of the following compound is -0.4 or greater: `COc1cc(C)nc(Oc2ccc(OCCOc3ccc(C)cc3)nn2)n1`
satisfied

Identify whether the reported z-score of the following compound is -0.4 or greater: `Cc1cc(C)nc(CC(N)=O)n1`
satisfied

Identify whether the reported z-score of the following compound is -0.4 or greater: `C[C@@H]1C[C@H]2[C@@H]3C[C@H](F)C4=CC(=O)C=C[C@]4(C)[C@@]3(F)[C@@H](O)C[C@]2(C)[C@@]1(O)C(=O)CO`
not satisfied

Identify whether the reported z-score of the following compound is -0.4 or greater: `C[C@]12CC[C@@H]3c4ccc(O)cc4CC[C@H]3[C@@H]1CCC2=O`
not satisfied

* * *

assay: inhibitors of E-selectin induction by TNFa, primary screen, imaging, HUVEC, immunofluorescence, MLSMR starter and 10KST1 sets (AID 487);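 for inhibition: signal is fraction of cell area covered by stained E-selectin grains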
test parameters: HUVEC TNFalpha-induced E-selectin immunofluorescence imaging, at 2 µM; stronger effect = higher value
Activity calls are given as the source filed them.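 How the source made its calls: active means visually confirmed hit in the image check and inhibition above 20%; inconclusive means visually confirmed hit but inhibition not above 20%; inactive means no visual hit in the image check.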
attribute measured: inhibition

State the recorded inhibition for this entry: Cc1nc(SC2C=CS(=O)(=O)C2)n[nH]1 (centres undefined)
-43.2% (inactive)

State the recorded inhibition for this entry: `Nc1nc(N)c2nc(-c3ccccc3)c(N)nc2n1`
-64.7% (inactive)

* * *

assay: inhibitors of E-selectin induction by TNFa, primary screen, imaging, HUVEC, immunofluorescence, MLSMR starter and 10KST1 sets (AID 487);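 for nuclei count: 100% = median nuclei count of all wells on the same plate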
test parameters: HUVEC TNFalpha-induced E-selectin immunofluorescence imaging, at 2 µM; measured here: cell number, toxicity
Reported values of nuclei count for individual entries
The figure you give is taken to be in %; do not add the unit.

{"compound": "COC(=O)c1ccc(Nc2cc(C)nc(-c3ccccc3O)n2)cc1", "attribute measured": "nuclei count", "observed value": 140}
{"compound": "CCN(CC)c1ccc2cc(C(=O)Nc3ccccn3)c(=O)oc2c1", "attribute measured": "nuclei count", "observed value": 80.2}

State the recorded nuclei count for this entry: CCCCOc1ccc(CSC(CC(=O)O)C(=O)O)cc1 (centres undefined)
114

State the recorded nuclei count for this entry: `CCCCCCn1cc(C(=O)O)c(=O)c2ccccc21`
158

State the recorded nuclei count for this entry: `Cc1cccc(OCC(=O)N2CCC(N3CCCCCC3)CC2)c1`
128

State the recorded nuclei count for this entry: COc1ccc(OC)c(C2C(C(=O)c3ccco3)=C(O)C(=O)N2CCCN2CCOCC2)c1 (centres undefined)
159
